experiment_description: chemical genetic growth profiling, strain panel (AID 1159580);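 further: tested at 20 µM; growth read once vehicle control cultures reached saturation at 30 °C; 1 = growth at the plate median or of vehicle wells; lower values mean less growth of the strain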
condition_parameters: S. cerevisiae deletion strains, growth OD, locus YGL086W, strain mad1, active compounds read low
Hit rate of the full screen: of about 5,500 compounds, about 2,000 (36%) were called active. Not shown: some 18% with an inconclusive outcome. The list shows a part of the results.
reported_endpoint: normalized growth
Answer field: number only, no words.

Some compounds with recorded normalized growth:
[[record]]
compound = "NC(=O)NO"
reported_endpoint = "normalized growth"
measured_number = 0.985

[[record]]
compound = "COc1ccc(C(=O)c2ccc(O)cc2)c(O)c1O"
reported_endpoint = "normalized growth"
measured_number = 0.992

[[record]]
compound = "COc1cc(-c2coc3cc(O[C@@H]4O[C@H](CO)[C@@H](O)[C@H](O)[C@H]4O)c(OC)c(O)c3c2=O)cc(O)c1OC"
reported_endpoint = "normalized growth"
measured_number = 1


Asked: Fill blank: measured normalized growth of the compound Cc1cc(=O)n(-c2ccccc2)n1C is ____.
Given back: 0.989

Asked: For the compound shown here, C[C@]12CCC(=O)C=C1CCC1C2C(=O)C[C@@]2(C)C1CC[C@]2(O)C(=O)CO (some centres undefined) , give the reported normalized growth.
Given back: 1.02

Asked: Please give the measured normalized growth for this compound: NC(=O)N1c2ccccc2C=Cc2ccccc21
Given back: 1.01

Asked: Fill blank: measured normalized growth of the compound O=C(CCc1ccc(O)cc1)c1c(O)cc(O)cc1O[C@@H]1O[C@H](CO)[C@@H](O)[C@H](O)[C@H]1O is ____.
Given back: 1.01

Asked: Query: normalized growth; subject: C#CC1(O)CCC2C3CCC4=CC(=O)CCC4(C)C3CCC21C (centres undefined)
Given back: 1.01

Asked: Please give the measured normalized growth for this compound: CC(=O)OCC(=O)[C@@]1(O)CCC2C3CCC4=CC(=O)CC[C@]4(C)C3[C@@H](O)C[C@@]21C (some centres undefined)
Given back: 1.01

* * *

experiment_description: chemical genetic growth profiling, strain panel (AID 1159580)
condition_parameters: S. cerevisiae deletion strains, growth OD, locus YEL003W, strain gim4, active compounds read low
Hit rate of the full screen: of about 5,500 compounds, about 2,000 (36%) were called active. Roughly 18% stayed inconclusive and do not appear here. Some of the results follow.
reported_endpoint: normalized growth
Number only, no unit.

Asked: Look at this molecule and give its reported normalized growth. O=C(O)c1cc(=O)c2cccc(O)c2[nH]1
Given back: 1.01

Asked: Quick one: normalized growth for CN1C(=O)CCS(=O)(=O)C1c1ccc(Cl)cc1 (stereo not given) ?
Given back: 0.982

* * *

experiment_description: chemical genetic growth profiling, strain panel (AID 1159580)
condition_parameters: S. cerevisiae deletion strains, growth OD, locus YCL016C, strain dcc1, active compounds read low
Out of some 5,500 compounds screened, about 2,000 (36%) were called active. Not shown: some 18% with an inconclusive outcome. The list shows a part of the results.
reported_endpoint: normalized growth
// print number alone

These solved cases illustrate the format of a correct answer.
[[record]]
compound = "O=C(O)c1cc(=O)c2c(Cl)cc(Cl)cc2[nH]1"
reported_endpoint = "normalized growth"
measured_number = 1.01

[[record]]
compound = "CCCCc1nc(Cl)c(CO)n1Cc1ccc(-c2ccccc2-c2nn[nH]n2)cc1"
reported_endpoint = "normalized growth"
measured_number = 0.983


Asked: Bench note: what normalized growth did O=C1c2ccccc2C(=O)C1c1ccccc1 show?
Given back: 1.01

Asked: // returns reported normalized growth for input CCc1cccc2c3c([nH]c12)C(CC)(CC(=O)O)OCC3 (stereo not drawn)
Given back: 1

Asked: Reported normalized growth, compound CC(=O)Oc1ccccc1C(=O)O : ____
Given back: 0.983

Asked: Reported normalized growth, compound CN1C(=O)CCS(=O)(=O)C1c1ccc(Cl)cc1 (stereo not drawn) : ____
Given back: 1.01

Asked: Item under review: COc1cc(/C=C/C(=O)N2CCC=CC2=O)cc(OC)c1OC . Reported normalized growth?
Given back: 1.01

Asked: Look up normalized growth for this compound: O=C(O)[C@H](O)[C@@](O)(Cc1ccc(O)cc1)C(=O)O
Given back: 1.02

* * *

normalized growth values by entry
experiment_description: chemical genetic growth profiling, strain panel (AID 1159580)
condition_parameters: S. cerevisiae deletion strains, growth OD, locus YLR418C, strain cdc73, active compounds read low
The whole screen tested about 5,500 compounds, of which about 2,000 (36%) were called active. Another 18% or so got no clear call; they are omitted. Some of the results follow. *1 amine or outer side, *2 acyl side, *3 side chain or, on linkers, in order; H or OH if unused. Where a SMILES comes first, the peptide text is derived from it. Bridges are numbered along the chain shown (N, C = ends). [ ]: non-standard residue; d: D form. The star is where a group is joined. ξ: configuration not given here. ΔAla(E,3-NHCONH2) = NC(=O)N/C=C(/N)C(=O)O; X2 = NC1=NCCC(C(N[*:1])C(=O)[*:2])N1; ξβ3hOrn = NCCCC(N)CC(=O)*; Dap = NC[CH](N)C(=O)O
Number only, no unit.

Please review the following examples before continuing.
[[record]]
compound = "CCc1cccc2c3c([nH]c12)C(CC)(CC(=O)O)OCC3 (stereo unspecified)"
measured_number = 0.995

[[record]]
compound = "COc1cc2c(cc1O)CCNC2C (stereo unspecified)"
measured_number = 0.973

[[record]]
compound = "COc1ccc2c(=O)ccoc2c1"
measured_number = 0.979

[[record]]
compound = "NCCCC(N)CC(=O)NCC1NC(=O)C(CO)NC(=O)C(N)CNC(=O)C(C2CCN=C(N)N2)NC(=O)/C(=C\\NC(N)=O)NC1=O (stereo not drawn) (H-[Dap]S[Dap](ξβ3hOrn)[ΔAla(E,3-NHCONH2)][X2]; lactam 1-C; configuration not given here)"
measured_number = 0.995

[[record]]
compound = "CC(=O)OCC(=O)[C@@]1(O)CCC2C3CCC4=CC(=O)CC[C@]4(C)C3[C@@H](O)C[C@@]21C (stereo partly specified)"
measured_number = 0.994


Continue with the compound presented below.
Asked: Look at this compound and give its reported normalized growth. COc1cc(-c2oc3cc(O)ccc3c(=O)c2O)cc(OC)c1OC
Given back: 0.974

* * *

In this section we review reported normalized growth values for a set of compounds.
experiment_description: chemical genetic growth profiling, strain panel (AID 1159580);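 further: tested at 20 µM; growth read once vehicle control cultures reached saturation at 30 °C; 1 = growth at the plate median or of vehicle wells; lower values mean less growth of the strain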
condition_parameters: S. cerevisiae deletion strains, growth OD, locus YLR113W, strain HOG1, active compounds read low
In all, about 5,500 compounds went through this assay and about 2,000 (36%) were called active. Inconclusive results (about 18%) are left out. Some of the results follow.
Reply with the value as a number alone.

Known results for compounds:
[[record]]
compound = "CC(=O)OCC1=C(C(=O)O)N2C(=O)[C@@H](NC(=O)CCCC(N)C(=O)O)C2SC1 (stereo not given in full)"
measured_number = 1.01

[[record]]
compound = "NC[C@H]1O[C@H](O[C@H]2[C@H](O)[C@@H](O[C@H]3O[C@H](CO)[C@@H](O)[C@H](N)[C@H]3O)[C@H](N)C[C@@H]2N)[C@H](N)C[C@@H]1O"
measured_number = 0.978

[[record]]
compound = "CCN(CC)C(=O)c1ccc(O)c(OC)c1"
measured_number = 0.99


Asked: Which normalized growth is listed for CC1(C)C(=O)[C@@H]2C[C@@]3(O)C4=CC(=O)O[C@@H](c5ccoc5)[C@]4(C)CCC3[C@@](C)(C2=O)[C@H]1CC(=O)O (stereo not given in full) ?
Given back: 0.986

Asked: Entry CCCCc1nc(Cl)c(CO)n1Cc1ccc(-c2ccccc2-c2nn[nH]n2)cc1 : reported normalized growth = ?
Given back: 1.01

Asked: Recorded normalized growth of COc1ccc(C(=O)O)c(O)c1OC , please.
Given back: 1

* * *

Listing of recorded normalized growth by entry.
experiment_description: chemical genetic growth profiling, strain panel (AID 1159580);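 further: tested at 20 µM; growth read once vehicle control cultures reached saturation at 30 °C; 1 = growth at the plate median or of vehicle wells; lower values mean less growth of the strain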
condition_parameters: S. cerevisiae deletion strains, growth OD, locus YJL095W, strain BCK1 (second series), active compounds read low
Out of some 5,500 compounds screened, about 2,000 (36%) were called active. Roughly 18% stayed inconclusive and do not appear here. The list shows a part of the results.
Quick one: just the number, no unit, thanks!

Asked: normalized growth for NC(=O)NO ?
Given back: 1

* * *

experiment_description: chemical genetic growth profiling, strain panel (AID 1159580);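 further: tested at 20 µM; growth read once vehicle control cultures reached saturation at 30 °C; 1 = growth at the plate median or of vehicle wells; lower values mean less growth of the strain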
condition_parameters: S. cerevisiae deletion strains, growth OD, locus YOR290C, strain snf2, active compounds read low
The campaign covered roughly 5,500 compounds. About 2,000 (36%) were called active. Not shown: some 18% with an inconclusive outcome. The list shows a part of the results. Where a SMILES comes first, the peptide text is derived from it. Side-chain parts run from the residue outwards. [ ]: non-standard residue; d: D form. The star is where a group is joined. X1 = CCC(C)C(N)C1=NC(C(=O)*)CS1; Orn = NCCC[CH](N)C(=O)O
// reported normalized growth for each item listed
// no unit, no text: just the number

As a guide, the following entries are already answered.
[[record]]
compound = "CC(=O)O[C@@H]1CC[C@]2(C)C3CC[C@]4(C)C(=O)CCC4C3CC[C@H]2C1 (stereo partly specified)"
measured_number = 0.958

[[record]]
compound = "NCCc1c[nH]c2ccccc12"
measured_number = 0.959

[[record]]
compound = "CC(C)CC1NC(=O)C(CCCN)NC(=O)C(C(C)C)NC(=O)C2CCCN2C(=O)C(Cc2ccccc2)NC(=O)C(CC(C)C)NC(=O)C(CCCN)NC(=O)C(C(C)C)NC(=O)C2CCCN2C(=O)C(Cc2ccccc2)NC1=O (stereo unspecified) (cyclo(FPV[Orn]LFPV[Orn]L); configuration not given here)"
measured_number = 0.973

[[record]]
compound = "COc1cc(O)cc(OC)c1OC"
measured_number = 0.921

[[record]]
compound = "CCC(C)C(N)C1=NC(C(=O)NC(CC(C)C)C(=O)NC(CCC(=O)O)C(=O)NC(C(=O)NCCCCC2NC(=O)C(CC(N)=O)NC(=O)C(CC(=O)O)NC(=O)C(Cc3cnc[nH]3)NC(=O)C(Cc3ccccc3)NC(=O)C(C(C)CC)NC(=O)C(CCCN)NC2=O)C(C)CC)CS1 (stereo not drawn) (cyclo(DNK([Ile-Glu-Leu-X1])[Orn]IFH); configuration not given here)"
measured_number = 0.963


Asked: Which normalized growth is listed for CNC(Cc1c[nH]c2ccccc12)C(=O)O (stereo unspecified) ?
Given back: 0.934
